assay: yeast display, Sf9 membrane polyspecificity reagent, FACS + sequencing; frameworks hold sequencing errors
observable: polyreactivity (PSR sort gate)

Consider the reported polyreactivity (PSR sort gate) for these sequences:
biopolymer_sequence	observable	value_reported
QVQLVESGGGIVQAGGSLRLSCAASGNTFHTYAMGWNRQAPVKERELVAAISSRGVGTYYADSVKGRFTISRDNAKNTVYLQMNSLKPEDTAVYYCAARHHPEYYYWGQGTQVTVSS	polyreactivity (PSR sort gate)	high polyreactivity
QVQLVESGGGLVQAGGSLRLSCAASGSTFAPNAMGWYRQAPGKERELVAGISWGDSTYYADSVKGRFTISRDNAKNTVYLQMNSLKPEDTAVYYCNVDDPFYSGVVEFDYWGQGTQVTVSS	polyreactivity (PSR sort gate)	low polyreactivity
QVQLVESGGGLVQAGGSLRLSCAASGSTFQGNAMGWYRQAPGKERELVAAISTSGGRTRYADSVKGRFTISRDKAKNTVYLQMNSLKPEDTAVYHCATTYWYGKRPKMYYWGQGTQVTVSS	polyreactivity (PSR sort gate)	high polyreactivity
QVQLVVSGGGLVQAGGSLRLRCAASGRTFVRYAMGWSRQAPGKERELVARITTRGTSTYYADSVKGRFTISRDNAKNTVYLLLNSLKPEDTAVYYCNKVRTFRDKSRYDYWGQGTQVTVSS	polyreactivity (PSR sort gate)	low polyreactivity
QVQLVESGGGLVQAGGSLRLSCAASGINFSFYTMRWYRQAPGIERELVAAISSGGDTYYADSVNGRFTNSRDNAKNTVYLQMNSLKPEVTAVYYCAVDQYDRTTAFCYWYPYYYWGQGTQVTVSS	polyreactivity (PSR sort gate)	low polyreactivity
QVQLVESGGGLVQAGGRLRLICAASGRIFYSYAMGWYRQAPGKERELVAAISFSVGSTYYADSVKGRFTISRDNAKNTVYLQMNSLKPEDTAVYYCAASLGFPGYEYWGQGTQVTVSS	polyreactivity (PSR sort gate)	low polyreactivity
QVQLVESGGGLVQAGGSLRLSCAASGPISRYNTMGWYRQAPGKERELVAAISYRGGSTYYADSVKGRFTISRDNAKNTVYLQMNSLKPEDTAVYYCNKVRSSVRSGGYGYWGQGTQVTVSS	polyreactivity (PSR sort gate)	high polyreactivity
QVQLVESGGGLVQAGGSLRLSCAASGLTLRNYAMGWYRQAPGKERELVAAITTGGGRTYYADSVKGRFTISRDNAKNTVYLQMNSLKPEDTAVYYCAAERAILSSDKQSLWRFDYWGQGTQVTVSS	polyreactivity (PSR sort gate)	low polyreactivity

Quick one: polyreactivity (PSR sort gate) of QVQLVESGGGLVQAGGSLRLSCAASVSTFFRNAMGWYRQAPGKERELVAAISKSGTSTYYADSVKGRFTISRDNAKNTVYLQMNSLKPEDTAVYYCAKYGFSYPQSYAYYYWGQGTQVTVSS ? high polyreactivity

Quick one: polyreactivity (PSR sort gate) of QVQLVESGGGLVQAGGSLRLSCAASGRTFGSYTMGWYRQAPGKERELVAAITSGGRTNYADSVKGRFTLSRDNAKNTVYLQMTSLKPEATAVYYCAAGLRGGRYRYFAYDYWGQGTQVTVSS ? high polyreactivity

Quick one: polyreactivity (PSR sort gate) of QVQLVESGGGLVQAGGSLRLSCAASGFTFYQYTMGRYRQAPGKERELVATITSDGGTNYADSVKGRFTISRDNAKNTVYLQMNSLKPEDTAVYYCARDYLSPYAVDYWGQGTQVTVSS ? low polyreactivity

Cited source for all entries: the nanobody polyreactivity screen of Harvey et al. (2022)
